Field: pKi. System: Histamine H3 receptor (Homo sapiens). Provenance: assorted publications.
Quick note: pKi means taking -log10 of the concentration in moles per liter.

Query: Form: Entry = c1cc(Oc2ccc(CSC3=NCCS3)cc2)ccc1CSC1=NCCS1 | System = Histamine H3 receptor (Homo sapiens) | pKi = ____
Response: 5.59

Query: Form: Entry = c1cc(N2CCC(CN3CCCC3)CC2)ccc1CN1CCCC1 | System = Histamine H3 receptor (Homo sapiens) | pKi = ____
Response: 9.22

Query: Form: Entry = CC(C)N1CCC(Oc2ccc(OC(CCN(C)C)c3ccccc3)cc2)CC1 (stereo not drawn) | System = Histamine H3 receptor (Homo sapiens) | pKi = ____
Response: 9.05

Query: Form: Entry = CN1Cc2cc(OCCCN3CCC(F)CC3)ccc2C(c2ccc(N(C)C)nc2)C1 (stereo not drawn) | System = Histamine H3 receptor (Homo sapiens) | pKi = ____
Response: 7.66

Query: Form: Entry = CSc1ccc(C2CN(C)Cc3cc(OCC4CN(C5CC5)C4)ccc32)cc1 (stereo not drawn) | System = Histamine H3 receptor (Homo sapiens) | pKi = ____
Response: 8.30

* * *

Field: pKi. System: Histamine H3 receptor (Homo sapiens). Provenance: assorted publications.
Quick note: pKi means taking -log10 of the concentration in moles per liter.

Cc1cccn2cc(-c3ccc(OCCCNC4CCN(Cc5ccccc5)CC4)cc3)nc12	6.82
C=CCNCCCOc1ccc2c(c1)CN(C)CC2c1ccc(OC)cc1 (stereo not drawn)	7.28
COc1ccc(C2CN(C)Cc3nc(OCCCN4CCCCC4)ccc32)cc1 (stereo not drawn)	9.00

Query: Form: Entry = CCN(CC)CCNC(=O)c1ccc(-c2cn3cccc(C)c3n2)cc1 | System = Histamine H3 receptor (Homo sapiens) | pKi = ____
Response: 7.05

Query: Form: Entry = CCN(CC)CCC(=O)Nc1ccc(-c2cn3cccc(C)c3n2)cc1 | System = Histamine H3 receptor (Homo sapiens) | pKi = ____
Response: 7.26

Query: Form: Entry = CSc1ccc(C2CN(C)Cc3cc(OCC4CCN(C(C)C)CC4)ccc32)cc1 (stereo not drawn) | System = Histamine H3 receptor (Homo sapiens) | pKi = ____
Response: 8.15

* * *

Field: log10 Ki. System: Histamine H3 receptor (Homo sapiens, UniProt Q9Y5N1). Provenance: assorted publications.
Transform log10 | Measure Ki | Unit nM

Examples with their reported log10 Ki follow.
CNCc1cc(CCCCN2CCN(C(C)C)CC2)ccc1Oc1ccc(SC)cc1	0.72
COc1ccc(C2CN(C)Cc3cc(OCCCN4CCS(=O)(=O)CC4)ccc32)cc1 (centres unmarked)	2.02
CCN1CCC(COc2ccc3c(c2)CN(C)CC3c2ccc(SC)cc2)CC1 (centres unmarked)	0.70
CSc1nc2cc(F)ccc2n1C1CCN(C(=O)C2CCN(Cc3ccnnc3)CC2)CC1	0.00
c1cc(N2CCC(CCN3CCOCC3)C2)ccc1CN1CCCCC1 (centres unmarked)	0.04
COc1ccc(C2CN(C)Cc3cc(OCCCNC4CCOCC4)ccc32)cc1 (centres unmarked)	1.77

Next up:
Query: Quick check: log10 Ki of COc1ccc(C2CN(C)Cc3cc(OCCCN4CCN(C(C)C)CC4)ccc32)cc1 (centres unmarked) ?
Response: 0.90

* * *

Field: pKi. System: UniProt Q9Y5N1. Provenance: assorted publications.
pKi: −log10 of the molar value.
Tick Yes if pKi is 6 or greater. Tick No if pKi is less than 6.

Answered cases to consult:
CCC(C)N1CCN(C(=O)c2ccc(C(CCN(C)C)Oc3ccc(C(F)(F)F)cc3)cc2)CC1 (stereo not drawn)	Yes
CN1Cc2cc(OCCCN3CCC(F)CC3)ccc2C(c2ccccc2Cl)C1 (stereo not drawn)	Yes

Query: Please check the record c1ccc(N2CCC(CN3CCCCC3)CC2)c(CN2CCOCC2)c1 and state if its pKi is at or above 6.
Response: No

Query: Please check the record c1ccc(N2CCC(CN3CCCC3)CC2)c(CN2CCOCC2)c1 and state if its pKi is at or above 6.
Response: No

Query: Please check the record CCN(CC)CCCOc1cc2c(cn1)C(c1ccc(OC)cc1)CN(C)C2 (stereo not drawn) and state if its pKi is at or above 6.
Response: Yes

Query: Please check the record CC(C)N1CCN(C(=O)c2ccc(N3CCN(C(C)C)CC3)nc2)CC1 and state if its pKi is at or above 6.
Response: Yes

Query: Please check the record CN(C)CCC(Oc1ccc(OCCCN2CCCCC2)cc1)c1ccccc1 (stereo not drawn) and state if its pKi is at or above 6.
Response: Yes

Query: Please check the record Cn1nc(-c2ccc(C(=O)N3CCC[C@H]3CN3CCCC3)cc2)ccc1=O and state if its pKi is at or above 6.
Response: Yes

* * *

Field: pKi. System: Histamine H3 receptor (Homo sapiens, UniProt Q9Y5N1). Provenance: assorted publications.
Quick note: pKi means taking -log10 of the concentration in moles per liter.

Cc1ccc(C2CN(C)Cc3cc(OCCCN4CCC(F)CC4)ccc32)cc1 (stereo not drawn)	8.10
COc1ccc(C2CN(C)Cc3cc(CCCCN4CCSCC4)ccc32)cc1 (stereo not drawn)	7.60
c1cc(N2CCC(CN3CCCC3)CC2)ccc1CN1CCCCCCCCCCCC1	8.22
CC(C)N1CCN(CCC#Cc2ccc(C(CCN(C)C)Oc3ccc(C(F)(F)F)cc3)cc2)CC1 (stereo not drawn)	6.59

Query: Form: Entry = c1cc(Oc2ccc(CN3CCCC3)cc2)ccc1CN1CCCC1 | System = Histamine H3 receptor (Homo sapiens, UniProt Q9Y5N1) | pKi = ____
Response: 9.30

Query: Form: Entry = COc1ccc(C2CN(CCO)Cc3cc(OCCCN4CCCCC4)ccc32)cc1 (stereo not drawn) | System = Histamine H3 receptor (Homo sapiens, UniProt Q9Y5N1) | pKi = ____
Response: 9.00

Query: Form: Entry = CN(C)CCC(Oc1ccc(C(F)(F)F)cc1)c1ccc(CCCCN2CCOCC2)cc1 (stereo not drawn) | System = Histamine H3 receptor (Homo sapiens, UniProt Q9Y5N1) | pKi = ____
Response: 7.49

Query: Form: Entry = COc1ccc(C2CN(C)Cc3cc(OC4CCNCC4)ccc32)c(F)c1 (stereo not drawn) | System = Histamine H3 receptor (Homo sapiens, UniProt Q9Y5N1) | pKi = ____
Response: 6.76

Query: Form: Entry = COc1ccc(C2CN(C3CC3)Cc3cc(OCCCN4CCCCC4)ccc32)cc1 (stereo not drawn) | System = Histamine H3 receptor (Homo sapiens, UniProt Q9Y5N1) | pKi = ____
Response: 8.70

* * *

Field: Ki. System: Histamine H3 receptor (Homo sapiens, UniProt Q9Y5N1). Provenance: assorted publications.

COc1ccc(C2CN(C)Cc3cc(OCC4CCN(CCF)CC4)ccc32)cc1 (stereo not shown)	0.008 µM
COc1ccc(C2CN(C)Cc3cc(OCC4CCNCC4)ccc32)c(F)c1 (stereo not shown)	0.064 µM
CN(C)CCC(Oc1ccc(C(F)(F)F)cc1)c1ccc(C(=O)N2CCN(C3CCCCC3)CC2)cc1 (stereo not shown)	0.022 µM
FC(F)(F)c1cc(N2CCC(CN3CCCC3)CC2)ccc1CN1CCOCCOCCOCCOCC1	0.034 µM
O=C(CN1CCC(F)(F)CC1)c1ccc(OCCCN2CCCCC2)c(Cl)c1	0.101 to 0.5 µM

Query: Form: Entry = O=C1NN=C(c2ccc3c(c2)COC2(CCN(C4CCC4)CC2)O3)C2CC12 (stereo not shown) | System = Histamine H3 receptor (Homo sapiens, UniProt Q9Y5N1) | Ki = ____
Response: < 0.2 µM

Query: Form: Entry = Nc1ncc(CN2CCC(F)(C(=O)N3CCC(n4c(-c5ccoc5)nc5cccnc54)CC3)CC2)cn1 | System = Histamine H3 receptor (Homo sapiens, UniProt Q9Y5N1) | Ki = ____
Response: 0.004 µM

Query: Form: Entry = C[C@@H]1CCCN1CCc1ccc(-c2ccc(=O)n(-c3ccc(F)cc3)n2)cc1 | System = Histamine H3 receptor (Homo sapiens, UniProt Q9Y5N1) | Ki = ____
Response: < 0.1 µM

Query: Form: Entry = CC(C)(C)OC(=O)N1CCN(c2ccnc(N)n2)CC1 | System = Histamine H3 receptor (Homo sapiens, UniProt Q9Y5N1) | Ki = ____
Response: > 0.38 µM

* * *

Field: Ki. System: UniProtKB Q9Y5N1. Provenance: assorted publications.
Express your answer in nM, writing the number without its unit.

Cc1cc(-c2cn3ccccc3n2)ccc1OCCCN1CCCCC1	21
COc1ccc(C2CN(C)Cc3cc(OCC4CCN(C(C)C)CC4)ccc32)cc1Cl (stereo not drawn)	3
Clc1ccc(C(=C2CCN(CCCCc3c[nH]cn3)CC2)c2ccccn2)cc1	3
CC(C)N1CCCN(C(=O)c2ccc(C(O)c3ccccc3)cc2)CC1 (stereo not drawn)	2

Next up:
Query: Form: Entry = CN(C)CCC(Oc1ccc(OCCCN2CCCCC2)cc1)c1ccc(Cl)cc1 (stereo not drawn) | System = UniProtKB Q9Y5N1 | Ki = ____
Response: 1
